The following compounds are shown together with reported pKi values.
testDescription: Inhibition of MANT-uracil binding to Caenorhabditis elegans CRBN (delta 1 to 15) by Cheng-Prusoff equation analysis
In simple prose, pKi is minus the logarithm base ten of a concentration in moles per litre.

See these solved cases before continuing.
Just so you know, measured pKi for CS(C)(=O)=O [DIMETHYL SULFONE] came out at 0.51

Short answer for "O=C1CCCC(=O)N1" : pKi was 4.36

pKi reported for this compound O=C1CCC(=O)N1 [SUCCINIMIDE] : 5.24

Lab note: next compound to report on.
// field: pKi; key: O=C1CCC(N2C(=O)c3ccccc3C2=O)C(=O)N1 (racemic) [THALIDOMIDE] ; value = 4.79

----------
targetEntity: Protein cereblon (Homo sapiens, UniProt Q96SW2)
Sequence (Q96SW2 whole entry): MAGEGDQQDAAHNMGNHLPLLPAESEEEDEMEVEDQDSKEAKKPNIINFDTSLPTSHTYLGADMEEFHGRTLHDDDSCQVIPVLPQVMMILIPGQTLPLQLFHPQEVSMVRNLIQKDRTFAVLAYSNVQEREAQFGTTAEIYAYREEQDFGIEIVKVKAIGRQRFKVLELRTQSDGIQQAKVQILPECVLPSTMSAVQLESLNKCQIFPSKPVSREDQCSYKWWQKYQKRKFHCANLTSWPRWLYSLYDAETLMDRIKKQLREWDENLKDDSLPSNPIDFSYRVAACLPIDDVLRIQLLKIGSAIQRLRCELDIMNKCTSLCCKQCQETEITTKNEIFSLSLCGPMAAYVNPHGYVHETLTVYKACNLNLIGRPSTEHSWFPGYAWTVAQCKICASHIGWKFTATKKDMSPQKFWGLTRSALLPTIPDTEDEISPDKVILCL
testDescription: Binding affinity to human CRBN (delta 1 to 315) by FRET assay
endpointName: pKd
# pKd = -log10(concentration in molar units)

Sure, the documented pKd for "CNc1ccccc1C(=O)NCCn1ccc(=O)[nH]c1=O" is 5.10
